# test system: BRM (Homo sapiens, UniProt P51531)
# Construct: In-Cell Western Screen of BRM Degradation in SW1573 Cells; endogenous in cells; host or cells: SW1573
# Sequence (P51531 whole entry): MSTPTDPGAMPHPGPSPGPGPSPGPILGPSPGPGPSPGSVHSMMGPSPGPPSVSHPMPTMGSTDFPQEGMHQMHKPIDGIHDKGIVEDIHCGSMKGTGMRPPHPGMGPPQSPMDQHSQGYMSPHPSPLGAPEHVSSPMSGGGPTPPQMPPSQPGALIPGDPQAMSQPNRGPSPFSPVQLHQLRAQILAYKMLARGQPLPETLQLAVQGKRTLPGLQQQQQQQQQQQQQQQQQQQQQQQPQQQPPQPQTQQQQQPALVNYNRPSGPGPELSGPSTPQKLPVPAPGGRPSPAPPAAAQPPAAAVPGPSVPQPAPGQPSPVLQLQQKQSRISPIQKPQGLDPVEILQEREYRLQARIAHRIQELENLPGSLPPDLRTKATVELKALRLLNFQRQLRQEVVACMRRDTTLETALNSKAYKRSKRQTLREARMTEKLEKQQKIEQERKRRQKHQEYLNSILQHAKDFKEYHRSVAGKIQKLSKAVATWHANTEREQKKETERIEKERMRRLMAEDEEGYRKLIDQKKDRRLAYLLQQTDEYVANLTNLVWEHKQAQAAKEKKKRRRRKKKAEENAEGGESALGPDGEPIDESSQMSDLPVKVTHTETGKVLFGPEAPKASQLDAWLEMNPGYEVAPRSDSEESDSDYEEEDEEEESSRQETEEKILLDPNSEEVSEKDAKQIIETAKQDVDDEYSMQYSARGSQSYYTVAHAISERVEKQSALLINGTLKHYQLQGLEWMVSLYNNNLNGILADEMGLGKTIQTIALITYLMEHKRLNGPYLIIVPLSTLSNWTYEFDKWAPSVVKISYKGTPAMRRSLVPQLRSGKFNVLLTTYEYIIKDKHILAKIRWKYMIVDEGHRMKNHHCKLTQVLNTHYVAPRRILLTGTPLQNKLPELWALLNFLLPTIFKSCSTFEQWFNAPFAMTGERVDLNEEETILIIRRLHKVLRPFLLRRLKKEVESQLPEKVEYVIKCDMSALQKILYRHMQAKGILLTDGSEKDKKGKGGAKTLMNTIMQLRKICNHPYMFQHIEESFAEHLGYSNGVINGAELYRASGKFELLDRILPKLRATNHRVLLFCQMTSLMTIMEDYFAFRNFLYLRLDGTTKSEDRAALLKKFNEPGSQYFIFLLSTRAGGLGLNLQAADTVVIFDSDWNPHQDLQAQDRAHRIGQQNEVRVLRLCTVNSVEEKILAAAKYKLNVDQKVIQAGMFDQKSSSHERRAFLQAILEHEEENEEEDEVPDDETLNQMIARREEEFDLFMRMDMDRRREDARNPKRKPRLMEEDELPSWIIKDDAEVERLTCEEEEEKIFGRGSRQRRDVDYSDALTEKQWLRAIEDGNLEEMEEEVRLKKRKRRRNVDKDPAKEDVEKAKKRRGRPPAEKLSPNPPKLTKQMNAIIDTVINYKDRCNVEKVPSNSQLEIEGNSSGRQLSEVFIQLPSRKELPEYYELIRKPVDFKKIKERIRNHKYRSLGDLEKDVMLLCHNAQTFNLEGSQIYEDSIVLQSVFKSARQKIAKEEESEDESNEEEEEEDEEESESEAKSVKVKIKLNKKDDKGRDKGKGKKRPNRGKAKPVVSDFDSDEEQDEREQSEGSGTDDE
# assay name: In-cell Western screen of BRM degradation in SW1573 cells (Dmax and DC50)
# Format: cell-based
# stated conditions: BRM degradation, SW1573 cells; read-out: DC50
Consider the following compounds; for each one, report its DC50.

Record summary for Cc1ncsc1-c1ccc([C@H](C)NC(=O)[C@@H]2C[C@@H](O)CN2C(=O)[C@@H](c2cc(OCCN3CCC4(CC3)CC(OCCN3CCOC5(CCN(c6cc(-c7ccccc7O)nnc6N)CC5)C3)C4)no2)C(C)C)cc1 [compound 93] : reported DC50 = < 2.5 nM

Record summary for Cc1ncsc1-c1ccc([C@H](C)NC(=O)[C@@H]2C[C@@H](O)CN2C(=O)[C@@H](c2cc(OCC#Cc3ccc(O[C@H]4C[C@H](Oc5cc(N6C7CCC6CN(c6cc(-c8ccccc8O)nnc6N)C7)ccn5)C4)cn3)no2)C(C)C)cn1 [compound 237] : reported DC50 = < 2.5 nM

###

# test system: BRM (Homo sapiens)
# Construct: In-Cell Western Screen of BRM Degradation in SW1573 Cells; endogenous in cells; host or cells: SW1573
# assay name: In-cell Western screen of BRM degradation in SW1573 cells (Dmax and DC50)
# Assay type: cell-based
# stated conditions: BRM degradation; read-out: BRM DC50
property: DC50

Summary line: "Cc1ncsc1-c1ccc([C@H](C)NC(=O)[C@@H]2C[C@@H](O)CN2C(=O)[C@@H](c2cc(OCCN3CCC(O[C@H]4C[C@H](Oc5cc(N6C7CCC6CN(c6cc(-c8cc(F)ccc8O)nnc6N)C7)ccn5)C4)CC3)no2)C(C)C)cc1" , BRM (Homo sapiens), reported DC50 = < 2.5 nM

Summary line: "Cc1cc([C@@H](C(=O)N2C[C@H](O)C[C@H]2C(=O)N[C@H](COCCCCCc2cc(-c3ccccc3O)nnc2N)c2ccc(-c3scnc3C)cc2)C(C)C)on1" , BRM (Homo sapiens), reported DC50 = > 30 nM

Summary line: "Cc1ncsc1-c1ccc([C@H](CCC#N)NC(=O)[C@@H]2C[C@@H](O)CN2C(=O)[C@H](c2cc(OCCN3CCC(O[C@H]4C[C@H](Oc5cc(N6C7CCC6CN(c6cc(-c8ccccc8O)nnc6N)C7)ccn5)C4)CC3)no2)C(C)C)cc1" , BRM (Homo sapiens), reported DC50 = > 30 nM

Summary line: "Cc1ncsc1-c1ccc([C@H](C)NC(=O)[C@@H]2C[C@@H](O)CN2C(=O)[C@@H](c2cc(N3CCN(C[C@H]4C[C@H](Oc5cc(N6C7CCC6CN(c6cc(-c8ccccc8O)nnc6N)C7)ccn5)C4)CC3)no2)C(C)C)cc1" , BRM (Homo sapiens), reported DC50 = < 2.5 nM

###

Consider the following molecules; for each one, report its Dmax.
# test system: BRM (Homo sapiens, UniProt P51531)
# Construct: In-Cell Western Screen of BRM Degradation in SW1573 Cells; endogenous in cells; host or cells: SW1573
# assay name: In-cell Western screen of BRM degradation in SW1573 cells (Dmax and DC50)
# Assay type: cell-based
# stated conditions: BRM degradation, SW1573 cells; when tested at the top concentration of between 0.3 and 10 μM; read-out: Dmax (%) (% degraded)
# Method: In-Cell Western Screen of BRM Degradation in SW1573 Cells […] To read each plate TBS-T was removed, and each plate was inverted tapped on a paper towel. The plates were read on the LI-COR Odyssey with default intensity settings of 5.0 for both channels. LI-COR images were analyzed with the in-cell Western feature of Image Studio Lite.

Record summary for Cc1ncsc1-c1ccc([C@H](C)NC(=O)[C@@H]2C[C@@H](O)CN2C(=O)[C@H](c2onc(OCCN3CCN(CCOc4cc(N5C6CCC5CN(c5cc(-c7ccccc7O)nnc5N)C6)ccn4)CC3)c2Cl)C(C)C)cc1 [compound 54] : reported Dmax = > 75%

Record summary for Cc1ncsc1-c1ccc(CNC(=O)[C@@H]2C[C@@H](O)CN2C(=O)[C@H](c2cc(OCCN3CCN(CCOc4cc(N5C6CCC5CN(c5cc(-c7ccccc7O)nnc5N)C6)ccn4)CC3)no2)C(C)C)cc1 [compound 41] : reported Dmax = > 75%

Record summary for Cc1ncsc1-c1ccc(CNC(=O)[C@H]2C[C@H](O)CN2C(=O)C(c2cc(OCCN3CCN(CCOc4cc(N5C6CCC5CN(c5cc(-c7ccccc7O)nnc5N)C6)ccn4)CC3)no2)C(C)C)cc1 (some centres unmarked) [compound 57] : reported Dmax = < 50%

Record summary for Cc1ncsc1-c1ccc(CNC(=O)[C@@H]2C[C@@H](O)CN2C(=O)[C@H](c2cc(OCCOCCOCCOCCn3cc(-c4cc(-c5ccccc5O)nnc4N)cn3)no2)C(C)C)cc1 [compound 16] : reported Dmax = 50 to 75%

Record summary for CC(C)[C@@H](C(=O)N1C[C@H](O)C[C@H]1C(=O)N[C@@H](C)c1ccc(-c2nccn2C)cc1)c1cc(OCCN2CCN(CCOc3cc(N4C5CCC4CN(c4cc(-c6ccccc6O)nnc4N)C5)ccn3)CC2)no1 [compound 115] : reported Dmax = 50 to 75%
